Field: EC50. Provide a value for each of the compounds that follow.
Tested on: RSV A2
testMethodNotes: RSV inhibition (cytopathic effect) in HEp-2 cells using Viral ToxGlo assay
Format: cell-based
statedConditions: human respiratory syncytial virus; RSV A2, HEp-2 cells, MOI 0.5, 72 h p.i.
The reply should be a number in nM, with the unit left off.

Query: Kindly indicate its recorded EC50. Item: `Cc1c(Nc2ccc(C(=O)N=C3NCCCN3)cc2C2CC2)cccc1C(=O)NCCC(C)C`
Result: 20

Query: Kindly indicate its recorded EC50. Item: `O=C(N=C1NCCCN1)c1ccc(Nc2cccc(C(=O)NCCC3CCOCC3)c2)c(C2CC2)c1`
Result: 165

Query: Kindly indicate its recorded EC50. Item: `Cc1c(NC(=O)CCC(C)C)cccc1Nc1ccc(C(=O)N=C2NCCCN2)cc1C1CC1`
Result: 209

Query: Kindly indicate its recorded EC50. Item: CC(NC(=O)c1cccc(Nc2ccc(C(=O)N=C3NCCCN3)cc2C2CC2)c1)C(F)(F)F (stereo not shown)
Result: 79

Query: Kindly indicate its recorded EC50. Item: O=C(N=C1NCCCN1)c1ccc(Nc2cccc(C(=O)N3CC4CC4C3)c2)c(C2CC2)c1 (stereo not shown)
Result: 298

Query: Kindly indicate its recorded EC50. Item: `CC(C)C(=O)Nc1cccc(Nc2ccc(C(=O)/N=C3\NCCC(=O)N3)cc2C2CC2)c1C1CC1`
Result: 141

Query: Kindly indicate its recorded EC50. Item: `Cc1cc(C(=O)N=C2NCCCN2)ccc1Nc1cccc(NC(=O)CCC2CCCCC2)c1`
Result: 704

Query: Kindly indicate its recorded EC50. Item: `CC(C)NC(=O)c1cccc(Nc2ccc(C(=O)N=C3NCCCN3)cc2C2CC2)c1`
Result: 41

Query: Kindly indicate its recorded EC50. Item: `O=C(N=C1NCCCN1)c1ccc(Nc2ccccc2S(=O)(=O)CCCC2CCCCC2)c(C2CC2)c1`
Result: 67

Query: Kindly indicate its recorded EC50. Item: `O=C(N=C1NCCCN1)c1ccc(Nc2cccc(OCCC3CCCCC3)c2)c(C2CC2)c1`
Result: 234

Query: Kindly indicate its recorded EC50. Item: `Cc1cc(C(=O)N=C2NCCCN2)ccc1Nc1cccc(C(=O)NCCC(C)C)c1`
Result: 365

Query: Kindly indicate its recorded EC50. Item: `O=C(N=C1NCCCN1)c1ccc(Nc2cccc(OCC(F)F)c2)c(C2CC2)c1`
Result: 151

Query: Kindly indicate its recorded EC50. Item: `CC(C)(C)NC(=O)c1cccc(Nc2ccc(C(=O)N=C3NCCCN3)cc2C2CC2)c1`
Result: 147

Query: Kindly indicate its recorded EC50. Item: `Cc1cc(C(=O)N=C2NCCCN2)ccc1Nc1cccc(C(=O)NCCC2CCCC2)c1`
Result: 308

Query: Kindly indicate its recorded EC50. Item: `O=C(N=C1NCCCN1)c1ccc(Nc2ccccc2C(=O)NCCC(F)(F)F)c(C2CC2)c1`
Result: 1100

Query: Kindly indicate its recorded EC50. Item: `O=C(N=C1NCCCN1)c1ccc(Nc2cccc(OCCCCC3CCCCC3)c2)c(C2CC2)c1`
Result: 368

* * *

Tested on: RSV A2
testMethodNotes: RSV inhibition (cytopathic effect) in HEp-2 cells using Viral ToxGlo assay
Type: cell-based
statedConditions: human respiratory syncytial virus; RSV A2, HEp-2 cells, MOI 0.5, 72 h p.i.
Field: pEC50. Provide a value for each of the compounds that follow.
Lab note — pEC50 values are minus log10 of concentrations in M.

Query: Kindly indicate its recorded pEC50. Item: CC(C)C(=O)Nc1cccc(Nc2ccc(C(=O)/N=C3\NCCC(=O)N3)cc2C2CC2)c1 [compound 116]
Result: 6.91

Query: Kindly indicate its recorded pEC50. Item: CC1CN1C(=O)c1cccc(Nc2ccc(C(=O)N=C3NCCCN3)cc2C2CC2)c1 (stereo not shown) [compound 162]
Result: 5.86

Query: Kindly indicate its recorded pEC50. Item: O=C(N=C1NCCCN1)c1ccc(Nc2cccc(OC(F)(F)F)c2)c(C2CC2)c1 [compound 137]
Result: 6.52

Query: Kindly indicate its recorded pEC50. Item: O=C(N=C1NCCCN1)c1ccc(Nc2cccc(-c3nnn(CCCC4CCCCC4)n3)c2)c(C2CC2)c1 [compound 149]
Result: 6.31

* * *

System: RSV A2
testMethodNotes: RSV inhibition (cytopathic effect) in HEp-2 cells using Viral ToxGlo assay
Type: cell-based
statedConditions: human respiratory syncytial virus; RSV A2, HEp-2 cells, MOI 0.5, 72 h p.i.
Field: EC50. Provide a value for each of the molecules that follow.
Don't forget the unit after the value.

Query: Kindly indicate its recorded EC50. Item: CC(C)CCNC(=O)c1cccc(Nc2ccc(C(=O)N=C3NCCCN3)cc2C(F)(F)F)c1 [compound 104]
Result: 0.05 µM

Query: Kindly indicate its recorded EC50. Item: O=C(N=C1NCCCN1)c1ccc(Nc2cccc(C(=O)N3CCOCC3)c2)c(C2CC2)c1 [compound 158]
Result: 1.03 µM

Query: Kindly indicate its recorded EC50. Item: Cc1cc(C(=O)N=C2NCCCN2)ccc1Nc1cccc(OCCCC2CCCCC2)c1 [compound 156]
Result: 0.966 µM

Query: Kindly indicate its recorded EC50. Item: CCC(CC)NC(=O)c1cccc(Nc2ccc(C(=O)N=C3NCCCN3)cc2C2CC2)c1 [compound 110]
Result: 0.08 µM
